B1: glmS ribozyme (parent)
chain: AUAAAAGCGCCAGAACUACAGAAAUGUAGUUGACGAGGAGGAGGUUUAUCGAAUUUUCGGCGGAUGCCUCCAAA

# Variants of: B1
# experiment: self-cleavage kobs at 2500 uM GlcN6P; higher = faster cleavage; RNA array
# stated-conditions: with glucosamine-6-phosphate
This sample holds only a part of the variants without activity.
Note to self: values exactly at 0.0003 s⁻¹ are Y. So self-cleavage kobs at 2500 uM GlcN6P at or above 0.0003 s⁻¹ is Y, below is N.

Use the examples below as a reference point.
>>> classification("G7A A53C")
"N"
>>> classification("G35C U55A")
"N"
>>> classification("G13C G63A")
"N"
>>> classification("U46A A48U U57A G60U C67U C68A")
"N"

Query :: Textbook exercise: given the entry C11U U31A C50G , state whether its self-cleavage kobs at 2500 uM GlcN6P is greater than or equal to 0.0003 s⁻¹.
Result :: N

Query :: Okay, and C50G U54C ?
Result :: N
